Test system: Human recombinant GST-PI3K
Experiment notes: PI3K induced-lipid phosphorylation scintillation proximity assay (neomycin-coated SPA beads)
Format: biochemical
Experimental context: amount necessary to achieve 50% inhibition of PI3K; 120 min at room temperature
Parameter: IC50 (nM)

Please tell me: IC50 of O=C(O)c1cc(Cl)c2nc(N3CCOCC3)nc(-c3cccc(O)c3)c2n1 , system Human recombinant GST-PI3K?
108

[I] CN(C)CCN(C)c1cc(C(=O)O)nc2c(-c3cccc4[nH]ccc34)nc(N3CCOCC3)nc12
[II] COCCN(C)c1cc(C(=O)O)nc2c(-c3cc(O)cc(F)c3)nc(N3CCOCC3)nc12
[III] O=C(O)c1ccc2nc(N3CCOCC3)nc(-c3ccc(O)cc3)c2n1
Could you please sort these 3 entries by IC50 from high to low? Answer by listing the labels in the requested order.
III, I, II

* * *

Test system: Human recombinant GST-PI3K
Experiment notes: PI3K induced-lipid phosphorylation scintillation proximity assay (neomycin-coated SPA beads)
Format: biochemical
Experimental context: amount necessary to achieve 50% inhibition of PI3K; 120 min at room temperature
Parameter: IC50 (nM)

In the examples that follow, each entry is paired with its recorded IC50.
So what's the measured IC50 for this one? COCc1cccc(-c2nc(N3CCOCC3)nc3c(N(C)C)cc(C(=O)O)nc23)c1
5050

Now the compound COCc1cccc(-c2nc(N3CCOCC3)nc3c(NCCO)cc(C(=O)O)nc23)c1
2490

[A] COCCOc1cc(C(=O)O)nc2c(-c3cccc(O)c3)nc(N3CCOCC3)nc12
[B] COCCNc1cc(C(=O)O)nc2c(-c3cccc(COC)c3)nc(N3CCOCC3)nc12
Hey, which is lower on measured IC50, A or B ? Your answer should be the label attached to the chosen record.
A
(A: 255 nM, B: 1830 nM)

* * *

System: Human recombinant GST-PI3K
Experiment notes: PI3K induced-lipid phosphorylation scintillation proximity assay (neomycin-coated SPA beads)
Format: biochemical
Experimental context: amount necessary to achieve 50% inhibition of PI3K; 120 min at room temperature
Parameter: IC50 (nM)

Here's what some known entries look like.
Report IC50 for O=C(O)c1ccc2nc(N3CCOCC3)nc(-c3cccc(O)c3)c2n1 please.
63

Check O=C(O)c1cc(Cl)c2nc(N3CCOCC3)nc(-c3ccccc3)c2n1 too.
678

Proceed to COCCN(C)c1cc(C(=O)O)nc2c(-c3ccc(F)cc3O)nc(N3CCOCC3)nc12
62

One more molecule: CNc1cc(C(=O)O)nc2c(-c3ccc(F)cc3O)nc(N3CCOCC3)nc12
412

Moving on to CN(C)c1cc(C(=O)O)nc2c(-c3cccc4[nH]ccc34)nc(N3CCOCC3)nc12
132

[I] COCc1cccc(-c2nc(N3CCOCC3)nc3c(N(C)CCO)cc(C(=O)O)nc23)c1
[II] COCCN(C)c1cc(C(=O)O)nc2c(-c3cccc(F)c3O)nc(N3CCOCC3)nc12
Problem: Given the entries I and II , determine which has the lower reported IC50. // output: label of the selected item
II
(II: 9 nM, I: 1850 nM)

* * *

System: Human recombinant GST-PI3K
Experiment notes: PI3K induced-lipid phosphorylation scintillation proximity assay (neomycin-coated SPA beads)
Type: biochemical
Experimental context: amount necessary to achieve 50% inhibition of PI3K; 120 min at room temperature
Procedure: The efficacy of compounds of the invention in inhibiting the PI3K induced-lipid phosphorylation may be tested in the following binding assay. […] After precipitation of the neomycin-coated PVT SPA beads for 5 minutes at 1500×g, radioactive PtdIns(3)P is quantified by scintillation counting in a Wallac MicroBeta™ plate counter. […]
Parameter: IC50 (nM)

Past entries and their recorded results:
IC50 for O=C(O)c1cc(NCCO)c2nc(N3CCOCC3)nc(-c3cccc(F)c3O)c2n1 ?
43

// query: COCCNc1cc(C(=O)O)nc2c(-c3ccc(CO)cc3)nc(N3CCOCC3)nc12
346

Request: COCCNc1cc(C(=O)O)nc2c(-c3ccc(F)cc3O)nc(N3CCOCC3)nc12
89

[P] CN(C)c1cc(C(=O)O)nc2c(-c3ccc(F)c(CO)c3)nc(N3CCOCC3)nc12
[Q] O=C(O)c1cc(NCCO)c2nc(N3CCOCC3)nc(-c3cc(O)cc(F)c3)c2n1
[R] COCCOc1cc(C(=O)O)nc2c(-c3ccc(O)cc3)nc(N3CCOCC3)nc12
Ascending by IC50, please. Rank the items, then write their labels in that order.
Q, P, R
(Q: 64 nM, P: 329 nM, R: 2520 nM)

* * *

Test system: Human recombinant GST-PI3K
Experiment notes: PI3K induced-lipid phosphorylation scintillation proximity assay (neomycin-coated SPA beads)
Format: biochemical
Experimental context: amount necessary to achieve 50% inhibition of PI3K; 120 min at room temperature
Description: The efficacy of compounds of the invention in inhibiting the PI3K induced-lipid phosphorylation may be tested in the following binding assay. […] After precipitation of the neomycin-coated PVT SPA beads for 5 minutes at 1500×g, radioactive PtdIns(3)P is quantified by scintillation counting in a Wallac MicroBeta™ plate counter. […]
Parameter: IC50 (nM)

Here's what some known entries look like.
Can you look up the measured IC50 of COCCNc1cc(C(=O)O)nc2c(-c3ccc(O)cc3)nc(N3CCOCC3)nc12 [Example 5] for me?
504

Could you do the same for CC(=O)N1CCN(c2cc(C(=O)O)nc3c(-c4cccc(O)c4)nc(N4CCOCC4)nc23)CC1 [Example 60] , please?
80

[P] O=C(O)c1cc(NCCO)c2nc(N3CCOCC3)nc(-c3cccc(CO)c3)c2n1 [Example 48]
[Q] CN(C)c1cc(C(=O)O)nc2c(-c3cccc(C#N)c3)nc(N3CCOCC3)nc12 [Example 66]
Higher IC50: P or Q ? When you have decided, please share the label of that item.
Q

[P] COc1ccccc1-c1cc(C(=O)O)nc2c(-c3cccc(O)c3)nc(N3CCOCC3)nc12 [Example 13]
[Q] O=C(O)c1cc(NCCO)c2nc(N3CCOCC3)nc(-c3ccc(O)cc3)c2n1 [Example 7]
Between P and Q , which one shows the larger IC50 value? In your reply, give the label of the chosen option.
Q
(Q: 732 nM, P: 24 nM)

[I] CS(=O)(=O)N1CCN(c2cc(C(=O)O)nc3c(-c4ccccc4)nc(N4CCOCC4)nc23)CC1 [Example 67]
[II] CN(C)c1cc(C(=O)O)nc2c(-c3ccc(O)cc3)nc(N3CCOCC3)nc12 [Example 4]
For I and II , which recorded IC50 is lower? Lab log: write the label of the selected item as the result.
I

[1] CN(C)c1cc(C(=O)O)nc2c(-c3ccc(F)cc3O)nc(N3CCOCC3)nc12 [Example 52]
[2] CN(C)c1cc(C(=O)O)nc2c(-c3ccccc3O)nc(N3CCOCC3)nc12 [Example 42]
Smaller IC50 value, 1 vs 2 ? Reply with the label of the item you choose.
2

* * *

System: Human recombinant GST-PI3K
Experiment notes: PI3K induced-lipid phosphorylation scintillation proximity assay (neomycin-coated SPA beads)
Assay type: biochemical
Experimental context: amount necessary to achieve 50% inhibition of PI3K; 120 min at room temperature
pIC50: −log10 of the molar value.
Parameter: pIC50

[A] CNc1cc(C(=O)O)nc2c(-c3cccc(F)c3O)nc(N3CCOCC3)nc12
[B] CS(=O)(=O)c1cc(C(=O)O)nc2c(-c3ccc(O)c(F)c3)nc(N3CCOCC3)nc12
[C] COCCN(C)c1cc(C(=O)O)nc2c(-c3ccc4[nH]ccc4c3)nc(N3CCOCC3)nc12
[D] COCCN(C)c1cc(C(=O)O)nc2c(-c3cccc(O)c3)nc(N3CCOCC3)nc12
Please put the 4 compounds above in a list ordered by falling pIC50. Response format: the labels, sorted as the prompt asks.
D, A, C, B

[1] Cc1cc(C(=O)O)nc2c(-c3cccc(O)c3)nc(N3CCOCC3)nc12
[2] CN(C)CCN(C)c1cc(C(=O)O)nc2c(-c3ccccc3O)nc(N3CCOCC3)nc12
Look at 1 and 2 . Which one has the lower recorded pIC50 number? // return label of chosen record
2
(2: 6.34, 1: 6.65)

[P] CN(C)c1cc(C(=O)O)nc2c(-c3cc(F)ccc3O)nc(N3CCOCC3)nc12
[Q] COCCNc1cc(C(=O)O)nc2c(-c3cccc(F)c3O)nc(N3CCOCC3)nc12
// pick larger pIC50 from pair: P vs Q Which one? Tell me its label.
Q

* * *

System: Human recombinant GST-PI3K
Experiment notes: PI3K induced-lipid phosphorylation scintillation proximity assay (neomycin-coated SPA beads)
Format: biochemical
Experimental context: amount necessary to achieve 50% inhibition of PI3K; 120 min at room temperature
pIC50: −log10 of the molar value.
Parameter: pIC50

Consider the reported pIC50 for these compounds:
Data request, read-out pIC50, for CS(=O)(=O)c1cc(C(=O)O)nc2c(-c3cc(F)ccc3O)nc(N3CCOCC3)nc12 [Example 55]
6.86

And then COc1cccc(-c2nc(N3CCOCC3)nc3ccc(C(=O)O)nc23)c1 [Example 2] , what is it?
5.35

Same again, this time with CN(C)c1cc(C(=O)O)nc2c(-c3cccc(CO)c3)nc(N3CCOCC3)nc12 [Example 23]
7.47

[I] CNc1cc(C(=O)O)nc2c(-c3cccc4[nH]ccc34)nc(N3CCOCC3)nc12 [Example 18]
[II] COCCNc1cc(C(=O)O)nc2c(-c3cccc4[nH]ccc34)nc(N3CCOCC3)nc12 [Example 19]
[III] COCCNc1cc(C(=O)O)nc2c(-c3cc(F)ccc3O)nc(N3CCOCC3)nc12 [Example 31]
[IV] CN(CCO)c1cc(C(=O)O)nc2c(-c3cccc(F)c3O)nc(N3CCOCC3)nc12 [Example 37]
Order field: pIC50 | Direction: descending (largest first) The labels, placed in the requested order, form the answer.
IV, III, II, I
(IV: 8.00, III: 7.14, II: 6.89, I: 6.11)

[1] Cc1cc(O)ccc1-c1nc(N2CCOCC2)nc2c(N(C)CCO)cc(C(=O)O)nc12 [Example 58]
[2] CS(=O)(=O)N1CCN(c2cc(C(=O)O)nc3c(-c4cccc(O)c4)nc(N4CCOCC4)nc23)CC1 [Example 61]
# min-compare on pIC50 between 1 and 2 Lab note: record the label of whichever item you select.
1

[A] CN(C)CCN(C)c1cc(C(=O)O)nc2c(-c3cc(F)ccc3O)nc(N3CCOCC3)nc12 [Example 32]
[B] O=C(O)c1cc(NCCO)c2nc(N3CCOCC3)nc(-c3ccccc3O)c2n1 [Example 44]
For the pair A and B , which member has the lower pIC50 number? Mark your selection by writing its label.
A
(A: 6.25, B: 7.09)

[I] COCCN(C)c1cc(C(=O)O)nc2c(-c3ccc(CO)cc3)nc(N3CCOCC3)nc12 [Example 22]
[II] COCCN(C)c1cc(C(=O)O)nc2c(-c3cc(F)cc(F)c3)nc(N3CCOCC3)nc12 [Example 65]
[III] CS(=O)(=O)c1cc(C(=O)O)nc2c(-c3cccc(F)c3O)nc(N3CCOCC3)nc12 [Example 39]
# rank by pIC50, ascending (min first) # output: labels, in the requested order
II, I, III

[a] CN(CCO)c1cc(C(=O)O)nc2c(-c3cccc(CO)c3)nc(N3CCOCC3)nc12 [Example 24]
[b] COc1cccc(-c2nc(N3CCOCC3)nc3c(Cl)cc(C(=O)O)nc23)c1 [Example 1]
[c] COCCN(C)c1cc(C(=O)O)nc2c(-c3cccc(CO)c3)nc(N3CCOCC3)nc12 [Example 47]
Given 3 compounds, produce a descending ranking by pIC50. Please respond with the labels ordered as the question requires.
c, a, b
(c: 8.10, a: 7.13, b: 5.97)

[I] CN(CCO)c1cc(C(=O)O)nc2c(-c3cccc4[nH]ccc34)nc(N3CCOCC3)nc12 [Example 20]
[II] CNc1cc(C(=O)O)nc2c(-c3cccc(O)c3)nc(N3CCOCC3)nc12 [Example 40]
[III] COCCN(C)c1cc(C(=O)O)nc2c(-c3ccc(O)cc3)nc(N3CCOCC3)nc12 [Example 3]
# sort list by recorded pIC50, greatest to least Respond with the label ranking, as requested.
I, II, III
(I: 7.11, II: 6.84, III: 6.54)

[1] COCCOc1cc(C(=O)O)nc2c(-c3cc(O)cc(F)c3)nc(N3CCOCC3)nc12 [Example 15]
[2] CN(CCO)c1cc(C(=O)O)nc2c(-c3ccc(F)c(CO)c3)nc(N3CCOCC3)nc12 [Example 50]
Of 1 and 2 , which shows the smaller pIC50 value? Answer by quoting the chosen item's label.
2
